Target: JAK2 (Homo sapiens)
Construct: purchased Carna Biosciences, Inc
Sequence (O60674 whole entry): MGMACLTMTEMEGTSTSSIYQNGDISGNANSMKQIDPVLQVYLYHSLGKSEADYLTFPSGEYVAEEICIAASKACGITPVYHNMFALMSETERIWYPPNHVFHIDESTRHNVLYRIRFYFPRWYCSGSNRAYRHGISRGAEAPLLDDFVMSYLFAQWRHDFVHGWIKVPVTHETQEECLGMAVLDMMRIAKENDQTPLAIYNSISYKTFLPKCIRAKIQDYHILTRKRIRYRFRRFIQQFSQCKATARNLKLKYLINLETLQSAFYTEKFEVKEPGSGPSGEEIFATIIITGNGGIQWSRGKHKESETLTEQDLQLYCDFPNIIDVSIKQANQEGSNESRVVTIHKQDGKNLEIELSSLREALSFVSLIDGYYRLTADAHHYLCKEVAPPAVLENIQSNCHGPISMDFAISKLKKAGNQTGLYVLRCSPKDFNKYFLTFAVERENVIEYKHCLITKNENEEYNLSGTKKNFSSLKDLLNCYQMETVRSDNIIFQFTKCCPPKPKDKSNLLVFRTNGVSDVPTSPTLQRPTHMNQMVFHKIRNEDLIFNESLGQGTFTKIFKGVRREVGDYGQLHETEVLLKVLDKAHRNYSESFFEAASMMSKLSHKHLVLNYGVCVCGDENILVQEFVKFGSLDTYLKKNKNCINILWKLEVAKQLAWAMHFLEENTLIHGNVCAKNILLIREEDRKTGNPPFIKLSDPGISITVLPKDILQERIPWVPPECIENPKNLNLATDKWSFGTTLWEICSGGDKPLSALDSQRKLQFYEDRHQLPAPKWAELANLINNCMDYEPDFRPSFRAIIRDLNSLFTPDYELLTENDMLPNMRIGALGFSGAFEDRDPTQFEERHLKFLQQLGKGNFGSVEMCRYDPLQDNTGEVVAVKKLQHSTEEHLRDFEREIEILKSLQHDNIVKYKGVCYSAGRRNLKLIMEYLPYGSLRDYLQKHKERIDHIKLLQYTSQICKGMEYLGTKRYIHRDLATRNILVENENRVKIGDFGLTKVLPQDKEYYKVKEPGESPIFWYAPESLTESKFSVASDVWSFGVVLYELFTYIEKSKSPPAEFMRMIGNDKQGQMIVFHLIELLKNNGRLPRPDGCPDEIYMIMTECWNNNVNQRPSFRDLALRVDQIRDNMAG
Test: JAK tyrosine kinase inhibitory activity in the presence of 1 mM ATP (ELISA), JAK2
Type: biochemical
Experimental: 1. Preparation of Test Compound The test compound was dissolved in dimethyl sulfoxide (DMSO) to 10 mM and further diluted with DMSO to the concentrations of 1000, 100, 10, 1, 0.1 and 0.01 μM, respectively. For JAK1, these solutions of the test compound at the six concentrations 10 mM, 1000 μM, 100 μM, 10 μM, 1 μM and 0.1 μM were used. […] The activity was determined by ELISA method. […] The absorbance at 450 nm was measured using a microplate reader (BIO-RAD). […]
Catalogue of compounds with associated IC50

# annotated cases, reported IC50 shown
COMPOUND: COC(=O)NC1CCN(C(=O)c2cc(NCCC3CC3)nc(-c3cnn4ccsc34)n2)CC1 [Example 163]
MEASURED_ON: JAK2 (Homo sapiens)
IC50: > 10000 nM
--
COMPOUND: COC(=O)NC1CCN(C(=O)c2cc(N[C@@H]3CCN(C(C)=O)C3)nc(-c3cnn4ccsc34)n2)CC1 [Example 152]
MEASURED_ON: JAK2 (Homo sapiens)
IC50: > 10000 nM
--
COMPOUND: Cc1ccccc1C(=O)NC1CCN(C(=O)c2cc(N[C@@H](C)C3CC3)nc(-c3cnn4ccsc34)n2)CC1 [Example 184]
MEASURED_ON: JAK2 (Homo sapiens)
IC50: > 10000 nM
--
COMPOUND: CCCCCCC(=O)NC1CCN(C(=O)c2cc(N[C@H](C)C(C)(C)C)nc(-c3cnn4ccsc34)n2)CC1 [Example 195]
MEASURED_ON: JAK2 (Homo sapiens)
IC50: 9000 nM

Data request: Name the reported IC50 value associated with the compound O=C(NC1CCN(C(=O)c2cc(OCC3CC3)nc(-c3cnn4ccsc34)n2)CC1)C1CC1 [Example 43]
Data returned: > 10000 nM

Data request: And then COC(=O)NC1CCN(C(=O)c2cc(NCC3CCN(S(C)(=O)=O)CC3)nc(-c3cnn4ccsc34)n2)CC1 [Example 175] , what is it?
Data returned: > 10000 nM
